Overview of reported EC50 across a group of molecules:
system: Respiratory syncytial virus; assay: Antiviral activity against respiratory syncytial virus in HEp-2 human lung carcinoma cell line; assay type: functional, organism-based
Give the quantity in µM, number only.

CC(C)(C)OC(=O)CCn1c(Cn2nnc3ccccc32)nc2ccccc21	4.31
CC(C)Cn1c(Cn2nc3ccccc3n2)nc2ccccc21	47.5
CC(C)n1c(Cn2nnc3ccccc32)nc2ccccc21	15.5

[in] Item `CC(C)n1c(Cn2nc3ccccc3n2)nc2ccccc21` : provide EC50
[out] 51.5
